These data points were gathered from patent US20250195521A1.

Molecular target: KRAS G13C (Homo sapiens (Human), UniProt P01116+P62937, G13C)
Sequence (P01116 other isoform, or with tags, fused parts or gaps G13C): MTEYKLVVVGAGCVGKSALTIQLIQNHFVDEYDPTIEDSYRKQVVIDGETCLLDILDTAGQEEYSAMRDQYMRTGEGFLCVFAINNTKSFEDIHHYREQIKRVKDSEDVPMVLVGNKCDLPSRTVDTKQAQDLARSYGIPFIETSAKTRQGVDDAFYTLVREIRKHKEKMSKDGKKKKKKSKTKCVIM
Sequence (P62937 whole entry): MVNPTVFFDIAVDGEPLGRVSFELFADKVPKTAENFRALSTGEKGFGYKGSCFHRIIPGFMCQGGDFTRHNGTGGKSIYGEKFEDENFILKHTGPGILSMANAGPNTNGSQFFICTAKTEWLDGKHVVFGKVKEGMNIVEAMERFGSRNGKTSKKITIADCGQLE
Test: Ras-Raf disruption/FRET/MOA assay (BRAF RBD, Cyclophilin A)
Assay type: biochemical
Details: read-out: KRAS G13C FRET IC50
pIC50: −log10 of the molar value.
Measured pIC50 values are reported for all entries that follow.
REPORTED METRIC: pIC50

INSERT INTO results (compound, reported_metric, result) VALUES
  ('CCn1c(-c2cccnc2[C@H](C)OC)c2c3cc(ccc31)-c1cc(O)cc(c1)C[C@H](NS(=O)(=O)C1CC1)C(=O)N1CCC[C@H](N1)C(=O)OCC(C)(C)C2 [Compound A196]', 'pIC50', '< 5.00'),
  ('CCn1c(-c2cccnc2[C@H](C)OC)c2c3cc(ccc31)-c1csc(n1)C[C@H](NC(=O)[C@H](C(C)C)N(C)C(=O)N1CC(N3CCOCC3)C1)C(=O)N1CCC[C@H](N1)C(=O)OCC(C)(C)C2 [Compound A338]', 'pIC50', '6.00 to 7.00'),
  ('CCn1c(-c2cccnc2[C@H](C)OC)c2c3cc(ccc31)-c1cccc(c1)C[C@H](NC(=O)[C@H](C(C)C)N(C)C(C)=O)C(=O)N1CCC[C@H](N1)C(=O)OCC(C)(C)C2 [Compound A61]', 'pIC50', '5.00 to 6.00'),
  ('CCn1c(-c2cccnc2[C@H](C)OC)c2c3cc(ccc31)-c1cc(O)cc(c1)C[C@H](NC(=O)[C@H](C(C)C)N(C)C(=O)[C@H]1CCN(C(=O)OC3CN(C)C3)C1)C(=O)N1CCC[C@H](N1)C(=O)OCC(C)(C)C2 [Compound A348]', 'pIC50', '7.00 to 8.00'),
  ('CCN(CC)C(=O)N(C)[C@H](C(=O)N[C@H]1Cc2nc(cs2)-c2ccc3c(c2)c(c(-c2cccnc2[C@H](C)OC)n3CC)CC(C)(C)COC(=O)[C@@H]2CCCN(N2)C1=O)C(C)C [Compound A351]', 'pIC50', '7.00 to 8.00'),
  ('CCn1c(-c2cccnc2[C@H](C)OC)c2c3cc(ccc31)-c1csc(n1)C[C@H](NC(=O)[C@H](C(C)C)N(C)C(=O)N1CCN(C(C)=O)CC1)C(=O)N1CCC[C@H](N1)C(=O)OCC(C)(C)C2 [Compound A291]', 'pIC50', '6.00 to 7.00'),
  ('CCn1c(-c2cccnc2[C@H](C)OC)c2c3cc(ccc31)-c1csc(n1)C[C@H](NC(=O)[C@H](C(C)C)N(C)C(=O)N1CC(Cc3cnn(C)c3)C1)C(=O)N1CCC[C@H](N1)C(=O)OCC(C)(C)C2 [Compound A500]', 'pIC50', '7.00 to 8.00'),
  ('CCn1c(-c2cccnc2[C@H](C)OC)c2c3cc(ccc31)-c1csc(n1)C[C@H](NC(=O)[C@H](C(C)C)N(C)C(=O)N1CC(O)C1)C(=O)N1CCC[C@H](N1)C(=O)OCC(C)(C)C2 [Compound A358]', 'pIC50', '6.00 to 7.00'),
  ('CCn1c(-c2cccnc2[C@H](C)OC)c2c3cc(ccc31)-c1cc(O)cc(c1)C[C@H](NC(=O)[C@H](C(C)C)N(C)C(=O)[C@H]1CCN(C(=O)[C@H]3CCCN3C)C1)C(=O)N1CCC[C@H](N1)C(=O)OCC(C)(C)C2 [Compound A371]', 'pIC50', '7.00 to 8.00');

* * *

Target: KRAS G12S (Homo sapiens (Human), UniProt P01116+P62937, G12S)
Sequence (P01116 other isoform, or with tags, fused parts or gaps G12S, one chain of several): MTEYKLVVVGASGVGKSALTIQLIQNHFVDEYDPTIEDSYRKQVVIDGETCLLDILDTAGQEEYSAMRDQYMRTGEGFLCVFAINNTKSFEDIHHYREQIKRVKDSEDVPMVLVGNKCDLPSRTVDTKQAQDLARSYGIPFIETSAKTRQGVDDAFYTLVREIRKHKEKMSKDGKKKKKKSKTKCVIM
Experiment: Ras-Raf disruption/FRET/MOA assay (BRAF RBD, Cyclophilin A)
Type: biochemical
Details: read-out: KRAS G12S FRET IC50
REPORTED METRIC: IC50

INSERT INTO results (compound, result) VALUES
  ('CCn1c(-c2cccnc2[C@H](C)OC)c2c3cc(ccc31)-c1cc(O)cc(c1)C[C@H](NC(=O)[C@@H]1CCCCCN1C(C)=O)C(=O)N1CCC[C@H](N1)C(=O)OCC(C)(C)C2 [Compound A176]', '1000 to 10000 nM'),
  ('CCn1c(-c2cccnc2[C@H](C)OC)c2c3cc(ccc31)-c1cc(O)cc(c1)C[C@H](NC(=O)[C@H](C(C)C)N(C)C(=O)[C@H]1C[C@H]1O)C(=O)N1CCC[C@H](N1)C(=O)OCC(C)(C)C2 [Compound A554]', '10 to 100 nM'),
  ('CCn1c(-c2cccnc2[C@H](C)OC)c2c3cc(ccc31)-c1cc(O)cc(c1)C[C@H](NC(=O)[C@H](C(C)C)N(C)C(=O)[C@@]1(F)CCN(C(=O)OC)C1)C(=O)N1CCC[C@H](N1)C(=O)OCC(C)(C)C2 [Compound A615]', '10 to 100 nM'),
  ('CCn1c(-c2cccnc2[C@H](C)OC)c2c3cc(ccc31)-c1cc(O)cc(c1)C[C@H](NC(=O)[C@H](C(C)C)N(C)C(=O)C1CC(=O)N(C3CC3)C1)C(=O)N1CCC[C@H](N1)C(=O)OCC(C)(C)C2 (stereo partly drawn) [Compound A252]', '10 to 100 nM'),
  ('CCn1c(-c2cccnc2[C@H](C)OC)c2c3cc(ccc31)-c1cc(O)cc(c1)C[C@H](NC(=O)[C@H](C(C)C)N(C)C(=O)C13CCC(CO1)C3)C(=O)N1CCC[C@H](N1)C(=O)OCC(C)(C)C2 [Compound A410]', '100 to 1000 nM'),
  ('CCn1c(-c2cnccc2COC)c2c3cc(ccc31)-c1cc(O)cc(c1)C[C@H](NC(=O)[C@H](C(C)C)N(C)C(=O)[C@@H](C)O)C(=O)N1CCC[C@H](N1)C(=O)OCC(C)(C)C2 [Compound A92]', '1000 to 10000 nM'),
  ('CCn1c(-c2cccnc2[C@H](C)OC)c2c3cc(ccc31)-c1cc(O)cc(c1)C[C@H](NC(=O)[C@H](C(C)C)N(C)C(=O)OCc1ccccc1)C(=O)N1CCC[C@H](N1)C(=O)OCC(C)(C)C2 [Compound A185]', '1000 to 10000 nM'),
  ('CCn1c(-c2cccnc2[C@H](C)OC)c2c3cc(ccc31)-c1cc(O)cc(c1)C[C@H](NC(=O)C13CCCC1C3(F)F)C(=O)N1CCC[C@H](N1)C(=O)OCC(C)(C)C2 (stereo partly drawn) [Compound A180]', '1000 to 10000 nM'),
  ('CCn1c(-c2cccnc2[C@H](C)OC)c2c3cc(ccc31)-c1cc(O)cc(c1)C[C@H](NC(=O)[C@H](C(C)C)N(C)C(=O)C1CNCCNC1)C(=O)N1CCC[C@H](N1)C(=O)OCC(C)(C)C2 [Compound A432]', '100 to 1000 nM');

* * *

Target: KRAS G13D binding to BRAF RBD (Homo sapiens (Human), UniProt P01116+P62937, G13D)
Sequence (P01116 other isoform, or with tags, fused parts or gaps G13D, one chain of several): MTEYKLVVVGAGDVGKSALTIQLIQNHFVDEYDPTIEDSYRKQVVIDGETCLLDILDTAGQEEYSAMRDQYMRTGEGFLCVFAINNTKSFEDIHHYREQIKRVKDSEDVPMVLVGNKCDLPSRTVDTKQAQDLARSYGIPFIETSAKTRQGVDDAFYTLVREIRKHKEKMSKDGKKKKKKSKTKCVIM
Assay: Ras-Raf disruption/FRET/MOA assay, KRAS G13D
pIC50: −log10 of the molar value.
Measured pIC50 values are reported for all entries that follow.
REPORTED METRIC: pIC50

INSERT INTO results (compound, target_entity, result) VALUES
  ('CCn1c(-c2cccnc2[C@H](C)OC)c2c3cc(ccc31)-c1csc(n1)C[C@H](NC(=O)[C@H](C(C)C)N(C)C(=O)C1CCN(C(=O)/C=C/CN(C)C)C[C@@H]1C)C(=O)N1CCC[C@H](N1)C(=O)OCC(C)(C)C2 (stereo partly shown) [Compound A709]', 'KRAS G13D binding to BRAF RBD (Homo sapiens (Human), UniProt P01116+P62937, G13D)', '6.00 to 7.00'),
  ('CCn1c(-c2cccnc2[C@H](C)OC)c2c3cc(ccc31)-c1cc(cc(C(F)F)c1)C[C@H](NC(=O)[C@@H](COC1CN(C(=O)C#CC(C)(C)N(C)C)C1)C(C)C)C(=O)N1CCC[C@H](N1)C(=O)OCC(C)(C)C2 [Compound A404]', 'KRAS G13D binding to BRAF RBD (Homo sapiens (Human), UniProt P01116+P62937, G13D)', '< 5.00'),
  ('CCn1c(-c2cncnc2)c2c3cc(ccc31)-c1csc(n1)C[C@H](NC(=O)[C@H](C(C)C)N(C)C(=O)[C@H]1CCN(S(=O)(=O)CC)C1)C(=O)N1CCC[C@H](N1)C(=O)OCC(C)(C)C2 [Compound A170]', 'KRAS G13D binding to BRAF RBD (Homo sapiens (Human), UniProt P01116+P62937, G13D)', '< 5.00'),
  ('C=CC(=O)N1CC[C@H](C(=O)N(C)[C@H](C(=O)N[C@H]2Cc3cc(O)cc(c3)-c3ccc4c(c3)c(c(-c3cccc(CN(C)C)c3)n4CC)CC(C)(C)COC(=O)[C@@H]3CCCN(N3)C2=O)C(C)C)C1 [Compound A106]', 'KRAS G13D binding to BRAF RBD (Homo sapiens (Human), UniProt P01116+P62937, G13D)', '< 5.00');
